- measuredTarget: UniProt:Q690N0
- Sequence (Q690N0 whole entry): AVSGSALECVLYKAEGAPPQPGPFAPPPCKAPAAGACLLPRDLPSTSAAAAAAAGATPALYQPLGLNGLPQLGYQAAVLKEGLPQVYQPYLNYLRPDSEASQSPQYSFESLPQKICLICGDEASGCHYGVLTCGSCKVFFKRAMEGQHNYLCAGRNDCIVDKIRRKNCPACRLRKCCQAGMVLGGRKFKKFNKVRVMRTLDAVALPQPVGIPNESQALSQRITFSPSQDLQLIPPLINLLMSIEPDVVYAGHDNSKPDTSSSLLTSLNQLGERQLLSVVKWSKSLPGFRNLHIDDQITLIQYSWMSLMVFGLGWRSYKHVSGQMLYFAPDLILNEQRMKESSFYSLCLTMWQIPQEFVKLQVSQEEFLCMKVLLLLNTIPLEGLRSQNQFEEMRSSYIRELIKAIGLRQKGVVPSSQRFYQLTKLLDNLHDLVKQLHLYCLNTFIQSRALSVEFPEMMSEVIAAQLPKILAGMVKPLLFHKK
- protocolDetails: DRUGMATRIX: Progesterone radioligand binding (ligand: [3H] R-5020)
- Assay type: tissue-based, Uterus
- measurementParameters: Not Active = under 50% inhibition at 10 µM; read-out: Ki
Would you kindly list log10(Ki) for each of these molecules?
A difference of one corresponds to tenfold Ki; all values are log10 with Ki in nM.

Ask | Need log10(Ki) of C[C@]12CCC(=O)C[C@@H]1CC[C@@H]1[C@@H]2CC[C@]2(C)[C@@H](O)CC[C@@H]12 , thanks.
Reply | 2.21

Ask | Also CC(=O)O[C@]1(C(C)=O)CC[C@H]2[C@@H]3C[C@H](C)C4=CC(=O)CC[C@]4(C)[C@H]3CC[C@@]21C [MEDROXYPROGESTERONE ACETATE] ?
Reply | -0.53

Ask | Also C#C[C@]1(O)CC[C@H]2[C@@H]3[C@H](C)CC4=C(CCC(=O)C4)[C@H]3CC[C@@]21C ?
Reply | 1.46

Ask | Also CC1(COc2ccc(CC3SC(=O)NC3=O)cc2)CCCCC1 (stereo unspecified) ?
Reply | 3.58

Ask | Also CN(CCOc1ccc(C[C@H](Nc2ccccc2C(=O)c2ccccc2)C(=O)O)cc1)c1ccccn1 ?
Reply | 3.60

Ask | Also C#C[C@]1(O)CC[C@H]2[C@@H]3CCC4=CC(=O)CC[C@@H]4[C@H]3CC[C@@]21C ?
Reply | 0.09

Measured values drawn from ChEMBL document CHEMBL1909046 for this set.
